These measurements were taken from patent US20260258115A1.

target: RSV F on RSV subtype A virus (RSV-A2) (Respiratory Syncytial Virus, subtype A, …, UniProt P03420 26-574); assay: cell-based or functional assay
Quick reference: Neutralization - RSV A2 IC50 (pM) of the listed items.
Response body: numeric value in pM, unit text excluded.

As a guide, the following entries are already answered.
binder	result units	observed
ADI-14334 (antibody, V domains shown) VH: EVQLVESGGGLVKPGGSLRLSCAASGVTVSSYYMTWVRQAPGKGLEFISDISSSSTYTNYADSVKGRFTISRDNAKSSLYLQMNNLRAEDTAVYYCARLGITVTGVGYFDLWGRGTLVTVSS VL: QPGLTQPPSVSGAPGQRVTISCTGSSSNIGAGYDVHWYQQLPGTAPKLLIHDNNNRPSGVPDRFSGSKSGTSASLAITGLQVEDEADYYCQSYDSSLSNYVFGTGTKLTVL	pM	189
ADI-41222 (antibody, V domains shown) VH: QVTLKESGGGVVQPGRSQRLSCTASGFNFHNYAMHWVRQAPGKGLEWVAVISYDGSNKNFADSVKGRFTISRDNSKNTLNLQMNNLRAEDTAVYYCVRDIVRGSPLFDYWGQGTLVTVSS VL: QPVLTQPPSLSVAPGQTAWITCGGNNIGSKIVHWYQQKPGQAPVVVVYDDDDRPSGIPERFSGSNSGNTATLTIRRVEVGDEADYYCQVWDRSSDNYVFGTGTKVSVL	pM	39.9

QUERY: Please supply the value of reported Neutralization - RSV A2 IC50 (pM) for the item ADI-20975 (antibody, V domains shown) VH: QVQLVESGTHVKKPGASVKVSCEASDDTFNNKGIVWVRQAPGQGLEWMGWIRPNNGNTKYAQKFQGRVTMTTDASTNTAYMELRSLRSGDTAVYYCAREQFKWNDFYFDYWGQGILVTVSS VL: SYELMQPPSVSVAPGQTATITCGGSNIGSETVHWYQQKPGQAPVLVVHDDTDRPSGIPERFSGSNSGNTATLTISGVEAGDEADFYCQVRDSRTDDVVFGGGTKLTVL
RESULT: 67

QUERY: Provide Neutralization - RSV A2 IC50 (pM) value for the following binder: ADI-41256 (antibody, V domains shown, also called Ab 578; Antibody Number 578) VH: QVQLVQSGAEVKSPGSSATVSCKASGGTFGSYGISWVRQAPGQGLEWIGAIMPMFGTTNYAQKFQGRVTMTADESTSTVYMDVSSLRPDDTAVYYCVRDVFYDILTGYYDADYYHHYMDVWGKGTTVTVSS VL: DIVMTQSPLSLPVTLGQPASISCRSGQSLVHSDGNTYLNWFQQRPGQSPRRLIYKVSNRGSGVPDRFSGSGSGTDFTLKISRVEAEDVGVYFCMQGTHWPRTFGQGTKVDIK
RESULT: 85.8

QUERY: Identify measured Neutralization - RSV A2 IC50 (pM) corresponding to ADI-41208 (antibody, V domains shown) VH: QVQLVESGGDLVKPGGSLRLSCAASGFTLSGHYMSWIRQPPGKGLEWVSSISGGSTYTNYADSVKGRFTISRDNAENSLYLQMNSLRAEDTAVYYCARLAYSDYGPFYFDLWGRGTLVTVSS VL: QSVLTQPPSVSGAPGQRVTISCTGSSSNIGAGYDVHWYQQLTGTAPKLLIFDNNNRPSGVPDRFSGSKSGTSASLAITGLQAEDEADYYCQSYDSRLSAPYVFGTGTKLTVL
RESULT: 310
